Test: protein stability index of a GFP-peptide fusion (yeast GPS) (PSI 1-4); higher = more stable; sorted into four equal gates, so the index is relative within each strain
Conditions: ubr1∆
result-type: protein stability index

{"columns": ["construct-sequence", "reported"],
 "data": [
  ["SIPMGGQSINDSLKKLL [ARP9]", 2.61],
  ["DKQGWTPLFHALAEGHG [NAS6]", 3.01],
  ["GNSGVVRATFRNNLPAK [RPL33A]", 3.22],
  ["ERPPLLPILPIQRLRLL [YOR098C/NUP1]", 1.9],
  ["FLVEYEGQENNYNSTSR [SIR4]", 3.24],
  ["VRWIETQDVFLKDFNTE [FAS2]", 3.15],
  ["DKKYKGLTTVWLLSALG [REC8]", 2.29],
  ["VAEKMNGCSGADVKGVC [RPT6]", 3.07],
  ["KVKAGVRSANEDGTFSV [RRP43]", 3.43],
  ["DQSIASGNTNGAGSAFG [YOR098C/NUP1]", 2.49],
  ["ASEYIETLGLKYLGLKP [FAS1]", 3.06],
  ["RLQFAQGSVRRLTVSAR [QCR2]", 1.14],
  ["RYLDNLKQEIDRGLSIK [SNU114]", 2.97],
  ["RGVTKVGFGESNFTSII [SMC1]", 3.08],
  ["TGEKPIITGSTSTSSSN [MED8]", 2.37],
  ["DLRIRIKLDIVVGQNQL [SNF5]", 1.75],
  ["RPYGVGLLIIGYDKSGA [PRE5]", 1.06],
  ["VANVKDLETLTMHTKTY [RPL32]", 2.95],
  ["DKTAVKLDTEVKNTNAN [SWP82]", 1.96],
  ["NLIIFLYKFNGWSLVGR [YML103C/NUP188]", 2.68],
  ["LSDIETAVNGIDTDLFG [YGL172W/NUP49]", 3.19],
  ["RYEEFADKVKLGRVRNH [RPC40]", 2.96],
  ["AGKWFDPVLDWRKSDRE [SIR4]", 3.18],
  ["NESKIKELNEKIQKLEE [RPN7]", 2.09],
  ["LELQVAKTFIDLESSSP [RPS7B]", 3.11],
  ["FPNGFKNFENGPKKNVF [RPC34]", 3.44],
  ["LQSLNESKDLLRASFNK [SRB4]", 3.48],
  ["LFKNYRFNFISKYFIID [YMR129W/POM152]", 1.42],
  ["YFFQLQIRSADEPMTTF [RPC11]", 3.26],
  ["DDEDDEHNPTIVGGLYY [AAR2]", 3.4]
]}
